# credit: patent US10894807B2

For each entry below, report its Ki value.
# system_under_test: human PSMA (Homo sapiens (Human), UniProt Q04609)
# Sequence (Q04609 whole entry): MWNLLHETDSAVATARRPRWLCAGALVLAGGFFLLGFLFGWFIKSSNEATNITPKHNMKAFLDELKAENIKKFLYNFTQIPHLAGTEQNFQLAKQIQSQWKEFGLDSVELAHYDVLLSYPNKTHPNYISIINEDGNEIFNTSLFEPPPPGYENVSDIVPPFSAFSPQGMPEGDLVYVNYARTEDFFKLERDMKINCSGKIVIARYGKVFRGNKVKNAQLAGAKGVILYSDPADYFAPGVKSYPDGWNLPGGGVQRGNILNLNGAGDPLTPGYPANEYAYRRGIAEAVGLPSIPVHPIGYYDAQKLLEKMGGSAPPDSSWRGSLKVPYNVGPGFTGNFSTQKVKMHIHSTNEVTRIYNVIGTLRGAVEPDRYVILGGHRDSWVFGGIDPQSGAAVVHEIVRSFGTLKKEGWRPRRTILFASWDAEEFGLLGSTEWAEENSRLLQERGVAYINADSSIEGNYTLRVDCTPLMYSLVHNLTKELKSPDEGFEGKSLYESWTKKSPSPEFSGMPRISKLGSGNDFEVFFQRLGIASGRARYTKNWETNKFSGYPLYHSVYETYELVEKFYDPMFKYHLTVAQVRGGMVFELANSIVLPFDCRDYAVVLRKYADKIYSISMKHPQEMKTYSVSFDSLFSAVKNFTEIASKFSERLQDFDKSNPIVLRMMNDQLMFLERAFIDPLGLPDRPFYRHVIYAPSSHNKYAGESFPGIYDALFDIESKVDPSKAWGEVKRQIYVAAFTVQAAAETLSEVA

Q: Data request, read-out Ki, for CCC1C(=O)N([C@@H](CCCCNC(=O)OCc2ccccc2)C(=O)O)C(=O)N([C@@H](CCC(=O)O)C(=O)O)C1=O (some centres unmarked) [P078]
Result: > 312 nM

Q: Item under review: O=NC1C(=O)N([C@@H](CCCCNC(=O)OCc2ccccc2)C(=O)O)C(=O)N([C@@H](CCC(=O)O)C(=O)O)C1=O (some centres unmarked) [P088] . Reported Ki?
Result: > 407 nM

Q: # Ki lookup, item O=C(O)CC[C@H](NC(=O)N[C@@H](CCCCNC(=S)Nc1ccc(-n2cc(CCCF)nn2)cc1)C(=O)O)C(=O)O [P200]
Result: < 0.3 nM

Q: Fill in: Ki of CC(F)C(=O)Nc1ccc(C(=O)NCCCC[C@@H](C(=O)O)N(O)C(=O)N[C@@H](CCC(=O)O)C(=O)O)cc1 (some centres unmarked) [P157] is ___
Result: > 313 nM

Q: Any idea what Ki was measured for O=C(O)CC[C@@H](C(=O)O)N1C(=O)C([N+](=O)[O-])C(=O)N([C@@H](CCCCNC(=O)OCc2ccc([N+](=O)[O-])cc2)C(=O)O)C1=O (some centres unmarked) [P089] ?
Result: > 407 nM
